Assayed Target: TβR2 (Homo sapiens, UniProt P37173)
Sequence (P37173 23-166): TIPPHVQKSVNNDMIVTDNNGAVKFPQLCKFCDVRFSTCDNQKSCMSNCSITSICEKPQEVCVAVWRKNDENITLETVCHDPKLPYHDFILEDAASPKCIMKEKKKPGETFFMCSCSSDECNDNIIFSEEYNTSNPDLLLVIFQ
Test Protocol: ELISA-like fluorescence binding assay
pKd: −log10 of the molar value. Primed or numbered codes have the meaning given here. Where no end group is shown, it is not given here. FITC′ = not defined here

Binder	pKd
ECGLLPVGRPDRVWRLCK-{FITC′} (cysteine pairing not given here) [PTβR2I]	5.47
